experiment: Metabolic stability in human hepatic microsome; type: in vitro ADME; conditions: microsomes, pH 7.4; human hepatic microsome, NADPH(+); read-out: CL NADPH(+)
Starred links: 1 amine or outer side, 2 acyl side, 3 side chain; linkers in the order of their positions; H or OH if unused. Positions of bridges follow the written chain, without caps; N, C: chain ends. Non-standard residues stand in square brackets, D forms with d. Residues, ends and D or L forms follow the SMILES beside them. *: point of attachment. NMeF = CN[C@@H](Cc1ccccc1)C(=O)O; NMeβAla = CN(CCC(=O)[*:2])[*:1]; NMeL = CN[C@@H](CC(C)C)C(=O)O; NMeV = CN[C@H](C(=O)O)C(C)C; NMeA = CN[C@@H](C)C(=O)O; Piperidide = C1CCN(*)CC1; tBu = CC(C)(C)*
MEASUREMENT TYPE: microsomal CLint at 1 uM (µL/min/mg)

COMPOUND	OBSERVED MEASUREMENT
CC(C)C[C@@H]1NC(=O)[C@H](Cc2ccccc2)N(C)C(=O)[C@@H](C(C)C)NC(=O)C[C@@H](C(=O)N2CCCCC2)NC(=O)[C@H](Cc2ccccc2)NC(=O)[C@H](CC(C)C)N(C)C(=O)[C@H]([C@@H](C)O)NC(=O)[C@H](CC(C)C)N(C)C1=O [DP-703] ([dV][NMeF]L[NMeL]T[NMeL]FD-Piperidide; lactam N-8)	222
CC[C@H](C)[C@@H]1NC(=O)[C@H](CC(C)C)N(C)C(=O)[C@H](C(C)C)N(C)C(=O)CCN(C)C(=O)C[C@@H](C(=O)N(C)[C@@H](Cc2ccccc2)C(=O)N[C@@H](C)C(=O)N2CCCCC2)NC(=O)[C@H]([C@@H](C)O)NC(=O)[C@H](Cc2ccccc2)N(C)C(=O)[C@H](C)N(C)C(=O)[C@H](CC(C)C)NC(=O)[C@H](C(C)C)N(C)C1=O [DP-447] ([NMeβAla][NMeV][NMeL]I[NMeV]L[NMeA][NMeF]TD[NMeF]A-Piperidide; lactam N-10)	159
CC(C)C[C@@H]1NC(=O)[C@H](Cc2ccccc2)N(C)C(=O)CNC(=O)[C@H]([C@@H](C)O)NC(=O)[C@H](CC(C)C)N(C)C(=O)[C@H](COC(C)(C)C)NC(=O)[C@H](C)N(C)C(=O)C[C@@H](C(=O)N2CCCCC2)NC(=O)[C@H](Cc2ccccc2)NC(=O)[C@H](CC(C)C)N(C)C1=O [DP-437] ([NMeA]S(tBu)[NMeL]TG[NMeF]L[NMeL]FD-Piperidide; lactam N-10)	265
CC(C)C[C@@H]1NC(=O)[C@H](CC(C)C)N(C)C(=O)[C@H](C)N(C)C(=O)[C@@H](C(C)C)NC(=O)C[C@@H](C(=O)N2CCCCC2)NC(=O)[C@H](CCC(=O)N(C)C)NC(=O)[C@H](CC(C)C)N(C)C(=O)[C@H](C)N(C)C(=O)[C@H](CC(C)C)N(C)C(=O)[C@H](Cc2ccccc2)NC(=O)[C@H](Cc2ccccc2)N(C)C1=O [DP-618] ([dV][NMeA][NMeL]L[NMeF]F[NMeL][NMeA][NMeL]E(NMe2)D-Piperidide; lactam N-11)	39
CC(C)C[C@H]1C(=O)NCC(=O)N(C)[C@@H](C(C)C)C(=O)N[C@@H]([C@@H](C)O)C(=O)N[C@@H](Cc2ccccc2)C(=O)N[C@H](C(=O)N(C)[C@@H](Cc2ccccc2)C(=O)N(C)[C@@H](Cc2ccccc2)C(=O)N[C@@H](C)C(=O)N2CCCCC2)CC(=O)N(C)CCC(=O)N(C)[C@@H](C(C)C)C(=O)N[C@@H](C(C)C)C(=O)N(C)[C@@H](Cc2ccccc2)C(=O)N1C [DP-390] ([NMeβAla][NMeV]V[NMeF][NMeL]G[NMeV]TFD[NMeF][NMeF]A-Piperidide; lactam N-10)	52

====

test: Metabolic stability in human hepatic microsome; format: in vitro ADME; details: microsomes, pH 7.4; human hepatic microsome, NADPH(+); read-out: CL NADPH(+)
Starred links: 1 amine or outer side, 2 acyl side, 3 side chain; linkers in the order of their positions; H or OH if unused. Positions of bridges follow the written chain, without caps; N, C: chain ends. Non-standard residues stand in square brackets, D forms with d. Residues, ends and D or L forms follow the SMILES beside them. *: point of attachment. Tyr(3-F) = N[C@@H](Cc1ccc(O)c(F)c1)C(=O)O; NMeF = CN[C@@H](Cc1ccccc1)C(=O)O; NMeI = CC[C@H](C)[C@H](NC)C(=O)O; NMeβAla = CN(CCC(=O)[*:2])[*:1]; Aoc(2) = CCCCCC[C@H](N)C(=O)O; NMeL = CN[C@@H](CC(C)C)C(=O)O; NMeV = CN[C@H](C(=O)O)C(C)C; NMeS = CN[C@@H](CO)C(=O)O; NMeA = CN[C@@H](C)C(=O)O; Piperidide = C1CCN(*)CC1; dNMeA = CN[C@H](C)C(=O)O; β3hA = C[C@H](N)CC(=O)O; Abu = CC[C@H](N)C(=O)O; Sar = CNCC(=O)O; tBu = CC(C)(C)*
# 1.0 = microsomal CLint at 1 uM below 30 µL/min/mg (exclusive); 0.0 = microsomal CLint at 1 uM at/above 30 µL/min/mg

COMPOUND	GROUP
CC[C@H](C)[C@@H]1NC(=O)[C@H](C)NC(=O)C[C@@H](C(=O)N2CCCCC2)NC(=O)[C@H](Cc2ccccc2)NC(=O)[C@H](C(C)C)N(C)C(=O)[C@H](CC(C)C)NC(=O)[C@H](C)N(C)C(=O)[C@H](Cc2ccccc2)N(C)C(=O)[C@H]([C@@H](C)O)NC(=O)CN(C)C(=O)[C@H](CC(C)C)N(C)C(=O)[C@@H]2CCCN2C1=O [DP-9] (AIP[NMeL][Sar]T[NMeF][NMeA]L[NMeV]FD-Piperidide; lactam N-12)	1.0
CCCCCC[C@@H]1NC(=O)[C@H](CC(C)C)N(C)C(=O)C[C@H](C)NC(=O)[C@H](CC)NC(=O)[C@H](CO)N(C)C(=O)[C@H](CC(C)C)N(C)C(=O)[C@H](CC(C)C)N(C)C(=O)[C@H](CC(C)C)N(C)C(=O)[C@@H](C)NC(=O)[C@H](C)NC(=O)[C@H](CC(C)C)N(C)C1=O [DP-646] (cyclo(A[dA][NMeL][NMeL][NMeL][NMeS][Abu][β3hA][NMeL][Aoc(2)][NMeL]))	0.0
CC[C@H](C)[C@@H]1NC(=O)[C@H](CC(C)C)N(C)C(=O)[C@H](C)NC(=O)[C@H](C)N(C)C(=O)C[C@@H](C(=O)N2CCCCC2)NC(=O)[C@H](C(C)C)N(C)C(=O)[C@H](Cc2ccccc2)N(C)C(=O)[C@H]([C@@H](C)O)NC(=O)[C@H](CC(C)C)N(C)C(=O)[C@H](Cc2ccccc2)NC1=O [DP-173] ([NMeA]A[NMeL]IF[NMeL]T[NMeF][NMeV]D-Piperidide; lactam N-10)	0.0
CC(C)C[C@@H]1NC(=O)[C@H](CC(C)C)N(C)C(=O)[C@H](C)NC(=O)[C@H](C(C)C)N(C)C(=O)[C@H](Cc2ccccc2)NC(=O)CN(C)C(=O)[C@H]([C@@H](C)O)NC(=O)[C@H](C)N(C)C(=O)[C@H](CC(C)C)N(C)C(=O)[C@@H](C)NC(=O)C[C@H](C)NC1=O [DP-764] (cyclo(A[NMeL]L[β3hA][dA][NMeL][NMeA]T[Sar]F[NMeV]))	1.0
C=C1CCC(=O)N[C@@H](C(C)C)C(=O)N(C)[C@@H](CC(C)C)C(=O)N(C)CC(=O)N(C)[C@@H](CC(C)C)C(=O)N(C)[C@@H]([C@@H](C)CC)C(=O)N[C@@H](C)C(=O)N(C)[C@@H](Cc2ccccc2)C(=O)N(C)[C@@H](Cc2ccccc2)C(=O)N[C@@H]([C@@H](C)O)C(=O)N(C)[C@@H](CC(C)C)C(=O)N2CCC[C@H]2C(=O)N[C@H](C(=O)N2CCCCC2)Cc2cccc1c2	0.0
CC(C)[C@@H]1NC(=O)[C@H](C)N(C)C(=O)[C@H](C(C)C)N(C)C(=O)CCN(C)C(=O)C[C@@H](C(=O)N(C)[C@@H](Cc2ccccc2)C(=O)N(C)[C@@H](Cc2ccccc2)C(=O)N[C@@H](C)C(=O)N2CCCCC2)NC(=O)[C@H](C)N(C)C(=O)[C@H](C)N(C)C(=O)[C@H]([C@@H](C)O)NC(=O)[C@H](C)N(C)C(=O)[C@H](Cc2ccccc2)N(C)C1=O [DP-450] ([NMeβAla][NMeV][NMeA]V[NMeF][NMeA]T[NMeA][NMeA]D[NMeF][NMeF]A-Piperidide; lactam N-10)	1.0
CC(C)C[C@@H]1NC(=O)[C@H](CC(C)C)N(C)C(=O)[C@H](C)N(C)C(=O)[C@@H](C(C)C)NC(=O)C[C@@H](C(=O)N2CCCCC2)NC(=O)[C@H]([C@@H](C)O)NC(=O)[C@H](C)N(C)C(=O)[C@H](C)N(C)C(=O)[C@H](CC(C)C)N(C)C(=O)[C@H](Cc2ccc(O)c(F)c2)NC(=O)[C@H](Cc2ccccc2)N(C)C1=O [DP-619] ([dV][NMeA][NMeL]L[NMeF][Tyr(3-F)][NMeL][NMeA][NMeA]TD-Piperidide; lactam N-11)	1.0
CC[C@H](C)[C@H]1C(=O)N[C@@H](C)C(=O)N(C)[C@@H](CC(C)C)C(=O)N[C@@H]([C@@H](C)O)C(=O)N[C@@H](Cc2ccccc2)C(=O)N(C)[C@@H](Cc2ccccc2)C(=O)N(C)[C@@H](CC(C)C)C(=O)N[C@@H](COC(C)(C)C)C(=O)N(C)[C@@H](CC(C)C)C(=O)N(C)[C@@H](C)C(=O)N[C@H](C(=O)N2CCCCC2)CC(=O)N[C@H](C(C)C)C(=O)N1C [DP-219] ([dV][NMeI]A[NMeL]TF[NMeF][NMeL]S(tBu)[NMeL][NMeA]D-Piperidide; lactam N-12)	0.0
CC(C)C[C@H]1C(=O)NCC(=O)N[C@H](C(=O)N(C)[C@@H](Cc2ccccc2)C(=O)N[C@@H](C)C(=O)N2CCCCC2)CC(=O)N[C@@H](C)C(=O)N[C@@H]([C@@H](C)O)C(=O)N(C)[C@@H](C)C(=O)N(C)[C@@H](Cc2ccccc2)C(=O)N[C@@H](C(C)C)C(=O)N(C)[C@@H](Cc2ccccc2)C(=O)N1C [DP-378] (AT[NMeA][NMeF]V[NMeF][NMeL]GD[NMeF]A-Piperidide; lactam N-9)	0.0
CC[C@H](C)[C@H]1C(=O)NCC(=O)N(C)[C@@H](Cc2ccccc2)C(=O)N[C@@H]([C@@H](C)O)C(=O)N(C)[C@@H](C)C(=O)N[C@@H](CC(C)C)C(=O)N[C@@H](C)CC(=O)N(C)[C@H](C)C(=O)N(C)[C@@H](C)C(=O)N[C@@H](Cc2ccccc2)C(=O)N(C)[C@@H](CC(C)C)C(=O)N[C@@H](C(C)C)C(=O)N1C [DP-755] (cyclo(F[NMeL]V[NMeI]G[NMeF]T[NMeA]L[β3hA][dNMeA][NMeA]))	0.0

Values compiled from patent US9409952B2.
